Kindly state growth at 100 µM for each of the entries shown.
System: G-361
Assay: Cytotoxicity against Homo sapiens (human) G361 cells assessed as cell growth at 10^-4 M by SRB assay relative to control
Type: functional
Details: read-out: Activity
Supply the numeric figure in %, leaving out any unit text.

### Prompt Look up growth at 100 µM with G-361 for this compound: CCCNc1nc(CC)nc2c1cnn2-c1ccccc1
### Response -34.7

### Prompt Look up growth at 100 µM with G-361 for this compound: Cc1nc(NCc2ccco2)c2cnn(-c3ccccc3)c2n1
### Response 30.1

### Prompt Look up growth at 100 µM with G-361 for this compound: CCCNc1ncnc2c1cnn2-c1ccccc1
### Response 64.8

### Prompt Look up growth at 100 µM with G-361 for this compound: c1ccc(-n2ncc3c(N4CCOCC4)nc(CN4CCOCC4)nc32)cc1
### Response 47.6

### Prompt Look up growth at 100 µM with G-361 for this compound: CCNCc1nc(NCC)c2cnn(-c3ccccc3)c2n1
### Response 87.7

### Prompt Look up growth at 100 µM with G-361 for this compound: c1ccc(-n2ncc3c(NCc4ccco4)ncnc32)cc1
### Response 51.7

###

Tested on: G-361
Experiment: Cytotoxicity against Homo sapiens (human) G361 cells assessed as cell growth at 10^-5 M by SRB assay relative to control
Assay type: functional
Conditions: read-out: Activity
endpoint: growth at 10 µM (%)
Supply the numeric figure in %, leaving out any unit text.

### Prompt Look up growth at 10 µM with G-361 for this compound: Cc1nc(Nc2ccccc2)c2cnn(-c3ccccc3)c2n1
### Response 100

### Prompt Look up growth at 10 µM with G-361 for this compound: Cc1nc(NC(C)C)c2cnn(-c3ccccc3)c2n1
### Response 100

### Prompt Look up growth at 10 µM with G-361 for this compound: CCCCNc1nc(C)nc2c1cnn2-c1ccccc1
### Response 100

### Prompt Look up growth at 10 µM with G-361 for this compound: CCc1nc(NCc2ccco2)c2cnn(-c3ccccc3)c2n1
### Response 86.3

### Prompt Look up growth at 10 µM with G-361 for this compound: CCCNc1ncnc2c1cnn2-c1ccccc1
### Response 99.7

### Prompt Look up growth at 10 µM with G-361 for this compound: c1ccc(-n2ncc3c(N4CCOCC4)ncnc32)cc1
### Response 100

### Prompt Look up growth at 10 µM with G-361 for this compound: CCN(CC)c1nc(C)nc2c1cnn2-c1ccccc1
### Response 100

### Prompt Look up growth at 10 µM with G-361 for this compound: CCc1nc(N2CCOCC2)c2cnn(-c3ccccc3)c2n1
### Response 65.9

### Prompt Look up growth at 10 µM with G-361 for this compound: COc1cccc2c1C(=O)c1c(O)c3c(c(O)c1C2=O)C[C@@](O)(C(=O)CO)C[C@@H]3O[C@H]1C[C@H](N)[C@H](O)[C@H](C)O1
### Response -64.2

### Prompt Look up growth at 10 µM with G-361 for this compound: CCCCNc1nc(CC)nc2c1cnn2-c1ccccc1
### Response 84.8

### Prompt Look up growth at 10 µM with G-361 for this compound: Cc1nc(NCc2ccco2)c2cnn(-c3ccccc3)c2n1
### Response 100
